Where do these numbers come from? They come from patent US20220232834A1.

Assign MIC to each entry below.
# Test system: Ralstonia solanacearum K60
# experiment-summary: microbe, parasite or virus in culture
# Format: cell-based
# assay-setup: Ralstonia solanacearum, K60

compound	MIC
CCCCCCCc1cc(O)c(CCCCCC)c(O)c1 (single isomer, unassigned) [Peak 3, 2-hexyl-5-heptylbenzene-1,3-diol]	> 25000 µg/mL

Each compound below has a reported value. Please supply its MIC.
1. CCCCCCc1c(O)cc(CCCCC)cc1O (single isomer, unassigned) [Peak 2, 2-hexyl-5-pentylbenzene-1,3-diol]
2. [H]/N=C(/N)N[C@H]1[C@H](O)[C@@H](O)[C@H](O[C@@H]2O[C@@H](C)[C@](O)(C=O)[C@H]2O[C@@H]2O[C@@H](CO)[C@H](O)[C@@H](O)[C@@H]2NC)[C@@H](N/C(N)=N\[H])[C@@H]1O
3. CN[C@H](CC(C)C)C(=O)N[C@H]1C(=O)N[C@@H](CC(N)=O)C(=O)N[C@H]2C(=O)N[C@H]3C(=O)N[C@H](C(=O)N[C@H](C(=O)O)c4cc(O)cc(O)c4-c4cc3ccc4O)[C@H](O)c3ccc(c(Cl)c3)Oc3cc2cc(c3O[C@@H]2O[C@H](CO)[C@@H](O)[C@H](O)[C@H]2O[C@H]2C[C@](C)(N)[C@H](O)[C@H](C)O2)Oc2ccc(cc2Cl)[C@H]1O [Vancomycin, reference compound]
4. O=C(O)c1cccc2nc3ccccc3nc12 (single isomer, unassigned) [Peak 4, phenazine-1-carboxylic acid]

Result:
["> 25000 µg/mL", "25 µg/mL", "100 µg/mL", "6.25 µg/mL"]

====

# System: Clavibacter michiganensis subsp. michiganensis 382
# experiment-summary: MIC value study of 1214-CHY4 metabolites
# Assay type: cell-based
# assay-setup: Clavibacter michiganensis
So basically, if MIC comes in under 10 µg/mL it's criterion met, and if it's 10 µg/mL or more it's criterion not met.

Before answering, review these 4 worked examples.
compound	discrete-label
O=C(O)c1cccc2nc3ccccc3nc12 (single isomer, unassigned) [Peak 4, phenazine-1-carboxylic acid]	criterion not met
CCCCCCc1c(O)cc(CCCCC)cc1O (single isomer, unassigned) [Peak 2, 2-hexyl-5-pentylbenzene-1,3-diol]	criterion met
CN[C@H](CC(C)C)C(=O)N[C@H]1C(=O)N[C@@H](CC(N)=O)C(=O)N[C@H]2C(=O)N[C@H]3C(=O)N[C@H](C(=O)N[C@H](C(=O)O)c4cc(O)cc(O)c4-c4cc3ccc4O)[C@H](O)c3ccc(c(Cl)c3)Oc3cc2cc(c3O[C@@H]2O[C@H](CO)[C@@H](O)[C@H](O)[C@H]2O[C@H]2C[C@](C)(N)[C@H](O)[C@H](C)O2)Oc2ccc(cc2Cl)[C@H]1O [Vancomycin, reference compound]	criterion met
[H]/N=C(/N)N[C@H]1[C@H](O)[C@@H](O)[C@H](O[C@@H]2O[C@@H](C)[C@](O)(C=O)[C@H]2O[C@@H]2O[C@@H](CO)[C@H](O)[C@@H](O)[C@@H]2NC)[C@@H](N/C(N)=N\[H])[C@@H]1O [Streptomycin]	criterion not met

Moving on to another compound below.
Task: Decide: MIC of CCCCCCCc1cc(O)c(CCCCCC)c(O)c1 (single isomer, unassigned) [Peak 3, 2-hexyl-5-heptylbenzene-1,3-diol] strictly below 10 µg/mL?
Result: criterion met
